# Test system: ATP;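 also: ATP exposure 15 min at 22 °C before imaging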
# assay: switch fluorescence ratio, 500 uM ATP over buffer (Cy3 cluster intensity, sum of 5 cycles each) (fold (ratio)); higher = stronger signal-on switching upon ATP binding; sequences stand for … in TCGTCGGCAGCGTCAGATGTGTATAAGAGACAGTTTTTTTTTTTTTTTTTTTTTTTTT…TC
# experimental_context: aptamer strand: ATP DNA aptamer (quencher-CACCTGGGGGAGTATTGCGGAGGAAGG + anchor), 100 nM annealed; ATP concentration: 500 uM
Below is a list of entries, each paired with its recorded switch fluorescence ratio value.
A bare number is all that is needed in reply.

The recorded switch fluorescence ratio for entry TTGTTGGGAT equals 0.996

Record summary for TTCGGGCCGG : reported switch fluorescence ratio = 1.01

Reported switch fluorescence ratio ( GTCGAAGGTG ) = 1.11

For reference, reported switch fluorescence ratio for CTCTGGGCGG stands at 0.988

Item: CGAGCTGGTT | switch fluorescence ratio: 0.991

Next:
The sequence listed as ATGAGGTTAG shows switch fluorescence ratio equal to 0.947
